# Protocol Description: SUPPLEMENTARY: PAMPA permeability assay
# Format: physicochemical
# Conditions: read-out: Permeability
Experimental Readout: Papp (×10⁻⁶ cm/s)
Answers are plain numbers, in ×10⁻⁶ cm/s.

Recorded Papp, per entry:
O=C(COc1ccccc1)N1CCCC[C@@H]1c1nnn(-c2ccc3[nH]ccc3c2)n1	2.27
COc1ccc(Cl)cc1S(=O)(=O)N1CCCCc2ccc(C(=O)Nc3ccc(C(=O)O)c(Cl)c3)cc21	2.54
COc1ccc(Cl)cc1S(=O)(=O)N(C)c1cccc(C(=O)Nc2nc(CC(=O)O)cs2)c1	2.48

Lab note: each molecule below needs its Papp filled in.
1. O=C1CCCN1c1cccc(-c2nc([C@H]3CCCCN3C(=O)COc3ccccc3)no2)c1
2. COc1ccc(Cl)cc1S(=O)(=O)N(C)c1cc(C(=O)Nc2ccc(C(=O)O)cc2)cc2c1OCO2
3. COc1ccc(-c2nc([C@H]3CCCCN3C(=O)COc3ccccc3)cs2)cn1
4. O=C(COc1ccccc1)N1CCOC[C@@H]1c1nc(-c2ccc3[nH]cnc3c2)no1
5. COc1ccc(Cl)cc1S(=O)(=O)N1C[C@@H](C)c2ccc(C(=O)Nc3ccc(C(=O)O)cc3)cc21
6. COc1ccc(Cl)cc1S(=O)(=O)N1COCc2ccc(C(=O)Nc3ccc(CC(=O)O)cc3)cc21

Result block:
[2.33, 2.06, 0.3, 2.8, 2.86, 1.39]

Provide reported Papp for each item, in the same order as listed.
1. O=C(COc1ccccc1)N1CCCC[C@@H]1c1noc(-c2cc(Cl)nnc2O)n1
2. COc1ccc(Cl)cc1S(=O)(=O)N1COCc2ccc(C(=O)Nc3ccc(C(=O)O)cc3)cc21

Result block:
1. 6.21
2. 2.16
